# Test protocol: fluorescence interference in NS3h DNA assay – biochemical, ChemBridge library, Cy5 readout, artefact control for HCV NS3 helicase inhibitor project (AID 720488)
# Condition context: Cy5-dT15 DNA with NS3h, at 100 µM, actives lie on both sides, signal over control mean, under 1 quenches
About 960 (6%) of roughly 16,000 compounds were called active. The sample as a whole holds a higher share of actives than the screen did.
Label y when fluorescence interference ratio >= 1; otherwise n.

Cc1ccc(NCC(O)COc2ccc(OCC(O)CNc3ccc(C)cc3C)cc2)c(C)c1 (configuration not stated) ... y

Inquiry: Hi team, for COc1ccc(C(=O)Nc2ncc([N+](=O)[O-])s2)cc1OC , is the recorded fluorescence interference ratio at or above 1?
Reply text: n

Inquiry: Subsequent entry: CCOC(=O)c1c(-c2ccc(C)cc2C)csc1NC(=S)NC(=O)c1ccccc1
Reply text: y

Inquiry: Subsequent entry: CCN(CC)c1ccc(C=C2C(=O)N(C)C(=O)N(C)C2=O)c(O)c1
Reply text: y

Inquiry: Subsequent entry: CCN(CC)c1ccc(/C=C2\C(=O)NC(=O)N(C)C2=O)cc1
Reply text: y

Inquiry: Subsequent entry: C/C(=N/NS(=O)(=O)c1ccccc1)c1cccc(Br)c1
Reply text: y

Inquiry: Subsequent entry: O=C(CSc1nnc(-c2ccc(Br)cc2)o1)OCc1ccccc1
Reply text: n

Inquiry: Subsequent entry: N#Cc1c(N)nc2sc(C(=O)Nc3ccccc3)c(N)c2c1-c1ccco1
Reply text: y

Inquiry: Subsequent entry: N#Cc1c(SCC(=O)c2ccc(Cl)cc2)nc2c(c1-c1ccco1)CCCC2
Reply text: n

Inquiry: Subsequent entry: O=C(Nc1ccc([N+](=O)[O-])cc1)C1CC(=O)N(c2ccc(Cl)cc2)C1 (configuration not stated)
Reply text: n

Inquiry: Subsequent entry: C=CC[n+]1c(-c2ccc(OC)cc2)csc1Nc1cccc(C)c1C
Reply text: y

Inquiry: Subsequent entry: COc1ccc(C(=O)Nc2nc3ccc(C)cc3s2)cc1Br
Reply text: y

Inquiry: Subsequent entry: Cc1cccc(N2C(=O)S/C(=C/c3ccc(N(C)C)cc3)C2=O)c1
Reply text: n

Inquiry: Subsequent entry: Cc1ccc(NC(=O)c2ccc(NC(=O)c3ccc(Cl)cc3Cl)cc2)cc1
Reply text: n
